test system: Purified human neutrophils; test: Luminol enhanced chemiluminescence (neutrophil oxidative activity), fMLP stimulated; assay type: cell-based; conditions: Homo sapiens, Neutrophil; read-out: Functional
Exercise: for every item that follows, state its recorded EC50.

Request: # get_value(readout='EC50', item= Nc1nc(C#CCC2CCN(C(=O)Oc3ccccc3)CC2)nc2c1ncn2[C@@H]1O[C@H](C(=O)NC2CC2)C(O)[C@@H]1O (stereo partly drawn) [Compound 1, reference compound] )
Response: 0.56 nM

Request: Given the molecule `COc1ccc(OC(=O)N2CCC(CC#Cc3nc(N)c4ncn([C@@H]5O[C@H](CO)[C@@H](O)[C@H]5O)c4n3)CC2)cc1` , what is its reported EC50?
Response: < 10 nM

Request: Which EC50 value is on record for Nc1nc(C#CCC2CCN(C(=O)Nc3ccc(Cl)cc3)CC2)nc2c1ncn2[C@@H]1O[C@H](CO)C(O)[C@@H]1O (stereo partly drawn) ?
Response: > 100 nM

* * *

Field: Ki. Provide a value for each of the compounds that follow.
Target: human A1 AR (Homo sapiens)
Construct: expressed in transfected cells; membranes
Sequence (P30542 1-326): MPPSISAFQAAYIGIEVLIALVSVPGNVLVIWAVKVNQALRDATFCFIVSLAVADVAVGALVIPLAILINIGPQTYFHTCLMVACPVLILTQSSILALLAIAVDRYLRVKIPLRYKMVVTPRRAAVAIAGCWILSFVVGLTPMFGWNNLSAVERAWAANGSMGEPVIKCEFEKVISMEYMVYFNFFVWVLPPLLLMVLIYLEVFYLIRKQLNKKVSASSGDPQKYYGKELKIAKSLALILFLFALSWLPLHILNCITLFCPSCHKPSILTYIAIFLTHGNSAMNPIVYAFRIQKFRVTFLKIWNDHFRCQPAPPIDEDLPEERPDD
Assay: Radioligand competition binding with 125I-ABA, membranes of CHO K1 cells stably expressing the receptor
Details: Ki derived from IC50, class symbols

Request: May I ask what Ki has been recorded for CCNC(=O)[C@H]1O[C@@H](n2cnc3c(N)nc(C#CCC4CCN(C(=O)Oc5ccc([N+](=O)[O-])cc5)CC4)nc32)[C@@H](O)C1O (stereo partly drawn) [Compound 19] ?
Response: < 100 nM

Request: Which Ki value is on record for Nc1nc(C#CCC2CCN(C(=O)OCc3ccc([N+](=O)[O-])cc3)CC2)nc2c1ncn2[C@@H]1O[C@H](CO)[C@@H](O)[C@H]1O [Compound 30] ?
Response: < 100 nM

Request: Find the recorded Ki belonging to Nc1nc(C#CCC2CCN(C(=O)OCc3ccc([N+](=O)[O-])cc3)CC2)nc2c1ncn2[C@@H]1O[C@H](C(=O)NC2CC2)C(O)[C@@H]1O (stereo partly drawn) [Compound 18] and report it.
Response: < 100 nM

Request: Return reported Ki; argument: CCNC(=O)[C@H]1O[C@@H](n2cnc3c(N)nc(C#CCC4CCN(C(=O)Oc5ccc(OC)cc5)CC4)nc32)[C@@H](O)C1O (stereo partly drawn) [Compound 15]
Response: < 100 nM

Request: Find the recorded Ki belonging to CCNC(=O)[C@H]1O[C@@H](n2cnc3c(N)nc(C#CCC4CCN(C(=O)Oc5ccc(F)c(F)c5)CC4)nc32)[C@@H](O)C1O (stereo partly drawn) [Compound 50] and report it.
Response: < 100 nM

Request: Would you kindly share the measured Ki for Nc1nc(C#CCC2CCN(C(=O)Oc3ccc([N+](=O)[O-])cc3)CC2)nc2c1ncn2[C@@H]1O[C@H](CO)[C@@H](O)[C@H]1O [Compound 12] ?
Response: < 100 nM

Request: Recorded Ki of CCNC(=O)[C@H]1O[C@@H](n2cnc3c(N)nc(C#CCC4CCN(C(=O)Oc5ccc(C(=O)OC)cc5)CC4)nc32)[C@@H](O)C1O (stereo partly drawn) [Compound 25] , please.
Response: > 100 nM

Request: Could you share which Ki value was measured for Nc1nc(C#CCC2CCN(C(=O)Nc3cccc(Cl)c3)CC2)nc2c1ncn2[C@@H]1O[C@H](CO)C(O)[C@@H]1O (stereo partly drawn) [Compound 46] ?
Response: < 100 nM

Request: For the compound shown here, CCNC(=O)[C@H]1O[C@@H](n2cnc3c(N)nc(C#CCC4CCN(C(=O)Oc5ccc(C)cc5)CC4)nc32)[C@@H](O)C1O (stereo partly drawn) [Compound 16] , give the reported Ki.
Response: < 100 nM

Request: What value of measured Ki is listed for Nc1nc(CCCC2CCN(C(=O)Oc3ccccc3)CC2)nc2c1ncn2[C@@H]1O[C@H](C(=O)NC2CC2)C(O)[C@@H]1O (stereo partly drawn) [Compound 38] ?
Response: > 100 nM

Request: So what does the record say about Ki for Nc1nc(C#CCC2CCN(C(=O)Oc3cccc([N+](=O)[O-])c3)CC2)nc2c1ncn2[C@@H]1O[C@H](C(=O)NC2CC2)C(O)[C@@H]1O (stereo partly drawn) [Compound 56] ?
Response: < 100 nM

Request: Form field: reported Ki of Nc1nc(C#CCC2CCN(C(=O)OCCOCc3ccccc3)CC2)nc2c1ncn2[C@@H]1O[C@H](CO)C(O)[C@@H]1O (stereo partly drawn) [Compound 7]
Response: < 100 nM

* * *

Exercise: for every item that follows, state its recorded pKi.
target: recombinant human A2A receptors (Homo sapiens); construct: expressed in transfected cells; host or cells: Sf9 insect cells infected with virus; membranes; assay: Radioligand competition binding with 125I-APE or 125I-ZM241385, Sf9 cell membranes; conditions: 125I-APE or 125I-ZM241385, Sf9 membranes; class symbols
Sequence (P29274 whole entry): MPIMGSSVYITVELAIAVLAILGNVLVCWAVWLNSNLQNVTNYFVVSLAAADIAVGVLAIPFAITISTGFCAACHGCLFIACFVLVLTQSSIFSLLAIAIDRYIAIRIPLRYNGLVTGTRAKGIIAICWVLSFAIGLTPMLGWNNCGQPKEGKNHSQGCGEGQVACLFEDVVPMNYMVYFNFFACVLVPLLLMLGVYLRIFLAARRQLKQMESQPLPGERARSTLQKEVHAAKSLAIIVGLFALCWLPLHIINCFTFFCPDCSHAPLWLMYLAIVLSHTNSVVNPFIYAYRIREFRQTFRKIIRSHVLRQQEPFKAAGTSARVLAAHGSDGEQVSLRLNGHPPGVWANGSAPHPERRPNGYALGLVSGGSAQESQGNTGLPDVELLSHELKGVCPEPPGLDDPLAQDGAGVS
pKi: −log10 of the molar value.

Request: Need pKi of Nc1nc(C#CCC2CCN(C(=O)Oc3ccc([N+](=O)[O-])cc3)CC2)nc2c1ncn2[C@@H]1O[C@H](C(=O)NC2CC2)C(O)[C@@H]1O (stereo partly shown) , thanks.
Response: > 9.00

Request: Could you share which pKi value was measured for CCNC(=O)[C@H]1O[C@@H](n2cnc3c(N)nc(C#CCC4CCN(C(=O)Oc5ccccc5Cl)CC4)nc32)[C@@H](O)C1O (stereo partly shown) ?
Response: > 9.00

Request: Look up pKi for this compound: COC(=O)c1ccc(OC(=O)N2CCC(CC#Cc3nc(N)c4ncn([C@@H]5O[C@H](C(=O)NC6CC6)C(O)[C@@H]5O)c4n3)CC2)cc1 (stereo partly shown)
Response: > 9.00

Request: Please give the measured pKi for this compound: CCNC(=O)[C@H]1O[C@@H](n2cnc3c(N)nc(C#CCC4CCN(C(=O)Oc5ccc(C)cc5)CC4)nc32)[C@@H](O)C1O (stereo partly shown)
Response: > 9.00

Request: Give its pKi value. Item: CCNC(=O)[C@H]1O[C@@H](n2cnc3c(N)nc(C#CCC4CCN(C(=O)Oc5ccc(N)cc5)CC4)nc32)[C@@H](O)C1O (stereo partly shown)
Response: > 8.00

Request: Form field: reported pKi of Nc1nc(C#CCC2CCN(C(=O)Oc3ccccc3Cl)CC2)nc2c1ncn2[C@@H]1O[C@H](C(=O)NC2CC2)C(O)[C@@H]1O (stereo partly shown)
Response: > 9.00

Request: Recorded pKi of CCNC(=O)[C@H]1O[C@@H](n2cnc3c(N)nc(C#CCC4CCN(C(=O)Oc5ccc(Cl)cc5)CC4)nc32)[C@@H](O)C1O (stereo partly shown) , please.
Response: > 9.00

Request: What does the data say about its pKi? Entry: Nc1nc(C#CCC2CCN(C(=O)Oc3ccc(Cl)cc3)CC2)nc2c1ncn2[C@@H]1O[C@H](C(=O)NC2CC2)C(O)[C@@H]1O (stereo partly shown)
Response: > 9.00

Request: So what's the measured pKi for this one? Nc1nc(C#CCC2CCN(C(=O)Oc3ccc(Cl)c(Cl)c3)CC2)nc2c1ncn2[C@@H]1O[C@H](CO)C(O)[C@@H]1O (stereo partly shown)
Response: > 9.00

Request: What does the record list as pKi for COc1ccc(OC(=O)N2CCC(CC#Cc3nc(N)c4ncn([C@@H]5O[C@H](C(=O)NC6CC6)C(O)[C@@H]5O)c4n3)CC2)cc1 (stereo partly shown) ?
Response: > 9.00

Request: Given `Nc1nc(C#CCC2CCN(C(=O)Oc3ccc([N+](=O)[O-])cc3)CC2)nc2c1ncn2[C@@H]1O[C@H](CO)[C@@H](O)[C@H]1O` , state its recorded pKi.
Response: > 9.00

Request: For Nc1nc(C#CCC2CCN(C(=O)Nc3cccc(Cl)c3)CC2)nc2c1ncn2[C@@H]1O[C@H](CO)C(O)[C@@H]1O (stereo partly shown) , what is its reported pKi?
Response: > 8.00

Request: Which pKi value is on record for `Cc1ccc(OC(=O)N2CCC(CC#Cc3nc(N)c4ncn([C@@H]5O[C@H](CO)[C@@H](O)[C@H]5O)c4n3)CC2)cc1` ?
Response: > 9.00
